- targetEntity: T1, soluble human insulin receptor-immunoglobulin heavy chain chimera (sIR-Fc; Bass et al., 1996) (human, UniProt P06213 28-956, limits assumed)
- T1 construct: extracellular domain; also called soluble IR (Bass construct); not shown: immunoglobulin heavy chain constant domains
- assayName: phage ELISA
reportedEndpoint: IR/IGF-1R comparison

>>> experimentalresult("RGCNDDGGKGWSDDPFYHKLSELICGG [B6Hα-1-A2-IR]")
0.1
>>> experimentalresult("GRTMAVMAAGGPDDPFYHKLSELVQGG [B6Hα-2-D6-IR]")
0.2
>>> experimentalresult("GFREGNFYEWFQAQVT [E4Dα-4-H2-IR]")
0.2
>>> experimentalresult("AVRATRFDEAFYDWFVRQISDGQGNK [H2CA-4-F6-IGFR]")
0.2
>>> experimentalresult("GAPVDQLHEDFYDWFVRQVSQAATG [H2CA-2-B2-IGFR]")
0.3
>>> experimentalresult("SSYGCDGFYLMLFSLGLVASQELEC [20C-3-A1-IGFR]")
0.1
>>> experimentalresult("RCEEKQAEVGPSSDPFYHKMSELLGCR [B6Hα-3-E9-IR]")
0.1
>>> experimentalresult("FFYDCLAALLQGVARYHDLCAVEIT [20C-4-C7-IGFR]")
"< 0.1"
>>> experimentalresult("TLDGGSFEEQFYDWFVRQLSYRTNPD [H2CA-4-G11-IGFR]")
0.3
>>> experimentalresult("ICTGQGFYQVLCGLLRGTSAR [20E2B-2-B3-IGFR]")
0.1
>>> experimentalresult("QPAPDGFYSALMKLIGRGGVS [20E2B-3-C8-IGFR]")
0.1
>>> experimentalresult("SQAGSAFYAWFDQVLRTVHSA [20E2Bβ-4-G6-IR]")
0.3
>>> experimentalresult("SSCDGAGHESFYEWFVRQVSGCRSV [H2CA-3-C8-IGFR]")
0.2
>>> experimentalresult("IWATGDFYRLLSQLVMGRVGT [20E2B-2-B8-IGFR]")
0.1
>>> experimentalresult("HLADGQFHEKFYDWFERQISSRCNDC [H2CA-3-E11-IGFR]")
0.5
>>> experimentalresult("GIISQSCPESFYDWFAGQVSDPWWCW [H2CA-4-G9-IGFR]")
0.1
>>> experimentalresult("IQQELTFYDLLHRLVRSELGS [20E2B-3-D2-IGFR]")
0.1
>>> experimentalresult("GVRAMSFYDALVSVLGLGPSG [20E2B-1-A6-IGFR]")
0.1
>>> experimentalresult("YSCGDGFYSLLSDLLGGQFRC [20E2B-4-H12-IGFR]")
0.1
>>> experimentalresult("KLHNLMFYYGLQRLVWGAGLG [20E2B-4-H3-IGFR]")
0.1
>>> experimentalresult("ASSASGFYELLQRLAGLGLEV [20E2B-3-C4-IGFR]")
0.2
>>> experimentalresult("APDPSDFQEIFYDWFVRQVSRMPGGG [H2CA-1-A3-IGFR]")
0.2
>>> experimentalresult("FRTLAAQHDSFYDWFDRQVSGAAGER [H2CA-3-C11-IGFR]")
0.5
>>> experimentalresult("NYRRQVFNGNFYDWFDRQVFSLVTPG [H2CA-3-D8-IGFR]")
0.3
>>> experimentalresult("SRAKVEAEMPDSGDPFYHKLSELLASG [B6Hα-1-A3-IR]")
0.3
>>> experimentalresult("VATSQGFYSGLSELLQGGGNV [20E2B-3-E12-IGFR]")
0.1
>>> experimentalresult("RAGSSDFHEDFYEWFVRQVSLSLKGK [H2CA-2-B9-IGFR]")
0.2
>>> experimentalresult("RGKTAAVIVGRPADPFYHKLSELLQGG [B6Hα-3-E8-IR]")
0.2
